# STUDY TARGET: recombinant soluble homotrimeric HA of A/Solomon Islands/3/06 (H1N1) (Influenza A virus A/Solomon Islands/3/2006 (H1N1))
# TEST DETAILS: HA microarray, BCC supernatant
# MEASUREMENT SETUP: remark: other sources report otherwise
For each of the binders below, state its Trimeric HA Binding RLU.
Numbers only, in RLU.

[
  {
    "BINDER": "TCN-529 (5297_H01) (antibody, V domains shown) VH: QITLRESGPTLVKPTQTLTLTCTFSGFSLSTNGVNVGWIRQPPGKALEWLALIYWDDDKRYSPSLKRRLTITKDTSKNQVVLTLTNMDPVDTATYYCAHRPDFYGDFEYWGPGTLVTVSS VL: QSALTQPASVSGSPGQSITISCTGSSSDIGGYNYVSWYQQHPGKAPKLMIYDVNNRPSGVSNRFSGSKSGNTASLTISGLQTDDEADYYCGSYTGSPHYVFGTGTKVTVL",
    "VALUE": 179
  },
  {
    "BINDER": "TCN-530 (5248_H10a) (antibody, V domains shown) VH: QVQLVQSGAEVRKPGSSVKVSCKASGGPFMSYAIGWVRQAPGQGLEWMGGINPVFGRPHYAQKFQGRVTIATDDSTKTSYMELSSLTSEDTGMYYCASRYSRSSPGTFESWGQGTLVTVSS VL: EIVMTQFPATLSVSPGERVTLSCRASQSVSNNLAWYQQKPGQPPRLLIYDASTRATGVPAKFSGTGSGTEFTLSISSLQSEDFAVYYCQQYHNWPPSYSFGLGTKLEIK",
    "VALUE": 32800
  },
  {
    "BINDER": "TCN-552 (5249_I23) (antibody, V domains shown) VH: QVQVVQSGAEVKKPGSSVRVSCQASGGTFMNYAIIWVRRAPGQGLEWMGGIIPVFPTPNYAQMFQGRVTISTDESRSTSFLELTNLRYEDTAVYYCARRIYHGGNSGFDFWGQGTLVTVSS VL: EIVLTQSPATLSLSPGERATLSCRASQSVGNYLAWYQQKPGQAPRLLIYDSSNRAPGIPARFSGSGSGTDFTLTISSLAPEDFAVYYCQQRSKWPPMYSFGHGTKLEIK",
    "VALUE": 39300
  },
  {
    "BINDER": "TCN-547 (5092_F11) (antibody, V domains shown) VH: QVQLQESGPGLVKPSQTLSLTCTVSGDSISSVDHYWSWIRQHPVKGLEWIGFMYYSASTYYNPSLKSRVTISTDTSKNQFSLRLSSVTAADTAVYYCARGTCAGDCSLHYYYYGLDVWGQGRTVTVSS VL: DIQMTQSPSSLSASVGDRVTITCRASQSISSYLNWYQHKPGKAPKVLMYAVSILQSGVPSRFSGSGSGADFTLTISSLQPEDFATYYCQQSYSSPLTFGGGTKVEIK",
    "VALUE": 155
  }
]

Would you kindly look at the next entry?
// query Read the entry TCN-527 (5086_C06) (antibody, V domains shown) VH: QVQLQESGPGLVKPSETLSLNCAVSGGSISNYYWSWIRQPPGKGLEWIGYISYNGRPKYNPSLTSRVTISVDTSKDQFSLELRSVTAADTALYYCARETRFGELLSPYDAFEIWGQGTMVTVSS VL: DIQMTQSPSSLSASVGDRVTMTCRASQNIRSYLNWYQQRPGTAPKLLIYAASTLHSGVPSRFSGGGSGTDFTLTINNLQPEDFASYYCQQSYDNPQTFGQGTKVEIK and write its reported Trimeric HA Binding RLU.
// result 16500

Where do these numbers come from? They come from patent US20150104459A1.
